Values of IC50 reported for Epidermal growth factor receptor (Homo sapiens, UniProt P00533) appear below.

Worked cases, IC50 given:
Cc1c[nH]c2ccc(Nc3ncnc4cc(-c5ccccc5)sc34)cc12
5 nM
c1cc(Nc2ccc3[nH]ccc3c2)c2sc(-c3ccc(CN4CCOCC4)cc3)cc2n1
30 nM
Cc1cc2cc(Nc3ccnc4cc(-c5ccc(CN(C)CCO)cc5)sc34)ccc2[nH]1
140 nM
NC(=O)C1CCN(Cc2ccc(-c3cc4nccc(Nc5ccc6[nH]ccc6c5)c4s3)cc2)CC1
1 nM
c1ccc(-c2cc3ncnc(Nc4ccc5[nH]ncc5c4)c3s2)cc1
1600 nM

Item: NC(=O)c1ccc(Nc2ncnc3cc(-c4ccccc4)sc23)cc1 | System: Epidermal growth factor receptor (Homo sapiens, UniProt P00533) | IC50: > 1000 nM

Here Cc1cc2cc(Nc3ccnc4cc(-c5ccc(CN6CCOCC6)cc5)sc34)ccc2[nH]1 was tested on Epidermal growth factor receptor (Homo sapiens, UniProt P00533), and its IC50 came to 1250 nM

Epidermal growth factor receptor (Homo sapiens, UniProt P00533) data for CC(=O)NCCNCc1ccc(-c2cc3nccc(Nc4ccc5[nH]ccc5c4)c3s2)cc1 ; its IC50: 2 nM

Provenance of the data: ChEMBL document CHEMBL1146693
